test system: S. pyogenes; experiment: microbe, parasite or virus in culture; format: cell-based; details: Streptococcus pyogenes, read-out: Selected Resistance (MIC), strain 2011 Macrolide-R [mef(A)], after serial passages in the drug
reportedProperty: MIC (µg/mL)
Entry rule: numbers only, all in µg/mL.

Examples with their reported MIC follow.
compound	MIC, µg/mL
CC[C@H]1OC(=O)[C@H](C)[C@@H](O[C@H]2C[C@@](C)(OC)[C@@H](O)[C@H](C)O2)[C@H](C)[C@@H](O[C@@H]2O[C@H](C)C[C@H](N(C)C)[C@H]2O)[C@](C)(O)C[C@@H](C)CN(C)[C@H](C)[C@@H](O)[C@]1(C)O [AZI, azithromycin]	32
CC[C@H]1OC(=O)[C@H](C)C(=O)[C@H](C)[C@@H](O[C@@H]2O[C@H](C)C[C@H](N(C)C)[C@H]2O)[C@](C)(OC)C[C@@H](C)C(=O)[C@H](C)[C@H]2N(CCCCn3cnc(-c4cccnc4)c3)C(=O)O[C@]12C [TEL, telithromycin]	1
CCC[C@@H]1C[C@@H](C(=O)N[C@@H]([C@H]2O[C@H](SC)[C@H](O)[C@@H](O)[C@H]2O)[C@H](C)Cl)N(C)C1 [CLN, clindamycin]	0.06

Now consider the entry below.
Asked: Provide MIC value for the following compound: CC[C@H]1OC(=O)[C@H](C)[C@@H](O[C@H]2C[C@@](C)(OC)[C@@H](O)[C@H](C)O2)[C@H](C)[C@@H](O[C@@H]2O[C@H](C)C[C@H](N(C)C)[C@H]2O)[C@](C)(OC)C[C@@H](C)C(=O)[C@H](C)[C@@H](O)[C@]1(C)O [CLR, clarithromycin]
Given back: 8
